assay target: succinate cytochrome c reductase (SDH+CIII) (Apis mellifera, UniProt A0A8U0WTA3+A0A8U0YBJ8+A0A8U1DE73)
Sequence (A0A8U1DE73 27-278): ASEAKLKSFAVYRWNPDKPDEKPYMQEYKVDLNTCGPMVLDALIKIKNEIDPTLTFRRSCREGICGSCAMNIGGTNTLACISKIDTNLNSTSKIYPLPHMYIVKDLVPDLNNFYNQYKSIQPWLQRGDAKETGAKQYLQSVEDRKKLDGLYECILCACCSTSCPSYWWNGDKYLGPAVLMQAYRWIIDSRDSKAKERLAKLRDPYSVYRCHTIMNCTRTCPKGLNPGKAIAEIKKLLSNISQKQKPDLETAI
Sequence (A0A8U0YBJ8 36-174): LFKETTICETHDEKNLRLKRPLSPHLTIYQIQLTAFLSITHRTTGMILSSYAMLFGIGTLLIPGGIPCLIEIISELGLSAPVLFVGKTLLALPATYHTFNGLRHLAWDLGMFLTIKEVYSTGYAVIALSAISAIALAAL
Sequence (A0A8U0WTA3 79-201): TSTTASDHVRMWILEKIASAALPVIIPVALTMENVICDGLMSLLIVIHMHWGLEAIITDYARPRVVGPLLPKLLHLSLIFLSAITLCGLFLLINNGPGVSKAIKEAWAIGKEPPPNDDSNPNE
assay: SCCR activity, honeybee crude mitochondria
Give measured pIC50 for each item. Keep answers brief.
// pIC50 is dimensionless: -log10 of concentration (M)

Report pIC50 for Cn1cc(C(=O)Nc2ccc(F)cc2-c2ccc(Cl)c(Cl)c2)c(C(F)F)n1 [Bixafen, bixafen] please.
5.48

What about this molecule? Cn1cc(C(=O)Nc2ccccc2-c2cc(F)c(F)c(F)c2)c(C(F)F)n1 [Fluxapyroxad, fluxapyroxad]
4.93

What about this molecule? Cc1nn(C)c(F)c1C(=O)Nc1ccccc1C(C)CC(C)C (stereo not shown) [Penflufen, penflufen]
5.12

What about this molecule? CC(C)C1C2CCC1c1c(NC(=O)c3cn(C)nc3C(F)F)cccc12 (stereo not shown) [Isopyrazam, isopyrazam]
5.29
